What viability, T/C was measured for each of the following?
- Tested on: K86415-001-R-J1-PDC complex spheroids, viability
- experiment: Anticancer human tumor K86415-001-R-J1-PDC patient-derived lung adenocarcinoma cell line growth inhibition [RAS]
- settings: second compound 0.316 µM; first compound 0.000949 µM; active compounds read low
# unit: % | format: bare number

Fill blank: measured viability, T/C of the molecule CCc1c2c(nc3ccc(O)cc13)-c1cc3c(c(=O)n1C2)COC(=O)[C@]3(O)CC + C#Cc1c(F)ccc2cc(O)cc(-c3ncc4c(N5CC6CCC(C5)N6)nc(OCC56CCCN5CC(F)C6)nc4c3F)c12 is ____. 80.7

Query CC1(C)CCC(Nc2ncc(C(F)(F)F)c(-c3c[nH]c4c(P(C)(C)=O)c(C#N)ccc34)n2)CN1 (centres undefined) + C=CC(=O)N1CCN(c2nc(OCC3CCCN3C)nc3c(F)c(-c4nc(N)cc(C)c4C(F)(F)F)c(Cl)cc23)C(C)C1 next 9.63

# iterate: CCc1c2c(nc3ccc(O)cc13)-c1cc3c(c(=O)n1C2)COC(=O)[C@]3(O)CC + C=CC(=O)N1CCN(c2nc(OCC3CCCN3C)nc3c(F)c(-c4nc(N)cc(C)c4C(F)(F)F)c(Cl)cc23)C(C)C1 10

Subsequent entry: CC1(C)CCC(Nc2ncc(C(F)(F)F)c(-c3c[nH]c4c(P(C)(C)=O)c(C#N)ccc34)n2)CN1 (centres undefined) + C#Cc1c(F)ccc2cc(O)cc(-c3ncc4c(N5CC6CCC(C5)N6)nc(OCC56CCCN5CC(F)C6)nc4c3F)c12 101

====

- Tested on: K86415-001-R-J1-PDC complex spheroids, viability
- experiment: Anticancer human tumor K86415-001-R-J1-PDC cell line growth inhibition [RAS]; active means viability on the fitted dose curve at most 10% of control; inactive means the rest;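 note: spheroids exposed to agents for seven days before readout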
- settings: second compound 0.0949 µM; first compound 0.316 µM
Pick from active, inactive when you respond.

Status in this test for C[C@@H](NC(=O)c1ncnc(N)c1Cl)c1ncc(C(=O)Nc2cc(C(F)(F)F)c(Cl)cn2)s1 + CCn1c(-c2cccnc2C(C)OC)c2c3cc(ccc31)N1CCOC(CC(NC(=O)C(C(C)C)N(C)C(=O)C3(F)CCN(C(=O)C#CC(C)(C)N(C)C)CC3)C(=O)N3CCCC(N3)C(=O)OCC(C)(C)C2)C1 ? inactive

Try this compound too: CC(C)NCC(C(=O)N1CCN(c2ncnc3c2C(C)CC3O)CC1)c1ccc(Cl)cc1 (stereo not drawn) + CCn1c(-c2cc(N3CCN(C)CC3)cnc2C(C)OC)c2c3cc(ccc31)-c1csc(n1)CC(NC(=O)C1CC1C)C(=O)N1CCCC(N1)C(=O)OCC(C)(C)C2 active

Next compound: Cc1nc(N2CCC3(CC2)COC(C)C3N)c(CO)nc1Sc1ccnc(N)c1Cl (stereo not drawn) + CCn1c(-c2cccnc2C(C)OC)c2c3cc(ccc31)N1CCOC(CC(NC(=O)C(C(C)C)N(C)C(=O)C3(F)CCN(C(=O)C#CC(C)(C)N(C)C)CC3)C(=O)N3CCCC(N3)C(=O)OCC(C)(C)C2)C1 active

Next record, please: CCN1CCN(Cc2ccc(Nc3ncc(F)c(-c4cc(F)c5nc(C)n(C(C)C)c5c4)n3)nc2)CC1 + CCn1c(-c2cccnc2C(C)OC)c2c3cc(ccc31)N1CCOC(CC(NC(=O)C(C(C)C)N(C)C(=O)C3(F)CCN(C(=O)C#CC(C)(C)N(C)C)CC3)C(=O)N3CCCC(N3)C(=O)OCC(C)(C)C2)C1 inactive

# iterate: Nc1ccn(C2OC(CO)C(O)C2(F)F)c(=O)n1 (stereo not drawn) + CCn1c(-c2cccnc2C(C)OC)c2c3cc(ccc31)N1CCOC(CC(NC(=O)C(C(C)C)N(C)C(=O)C3(F)CCN(C(=O)C#CC(C)(C)N(C)C)CC3)C(=O)N3CCCC(N3)C(=O)OCC(C)(C)C2)C1 inactive

Next compound: CC(Nc1ccc2c(c1)OCCn1cc(N3C(=O)OCC3C(F)F)nc1-2)C(N)=O (stereo not drawn) + CCn1c(-c2cc(N3CCN(C)CC3)cnc2C(C)OC)c2c3cc(ccc31)-c1csc(n1)CC(NC(=O)C1CC1C)C(=O)N1CCCC(N1)C(=O)OCC(C)(C)C2 active

Please do the same for CC(=O)OC12COC1CC(O)C1(C)C(=O)C(O)C3=C(C)C(OC(=O)C(O)C(NC(=O)OC(C)(C)C)c4ccccc4)CC(O)(C(OC(=O)c4ccccc4)C21)C3(C)C (stereo not drawn) + CCn1c(-c2cc(N3CCN(C)CC3)cnc2C(C)OC)c2c3cc(ccc31)-c1csc(n1)CC(NC(=O)C1CC1C)C(=O)N1CCCC(N1)C(=O)OCC(C)(C)C2 as well. active

Entry to check: CCN1CCN(Cc2ccc(Nc3ncc(F)c(-c4cc(F)c5nc(C)n(C(C)C)c5c4)n3)nc2)CC1 + CCn1c(-c2cc(N3CCN(C)CC3)cnc2C(C)OC)c2c3cc(ccc31)-c1csc(n1)CC(NC(=O)C1CC1C)C(=O)N1CCCC(N1)C(=O)OCC(C)(C)C2 active

====

- Test system: K86415-001-R-J1-PDC complex spheroids, viability
- experiment: Anticancer human tumor K86415-001-R-J1-PDC cell line growth inhibition [RAS];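 note: spheroids exposed to agents for seven days before readout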
- settings: second compound 0.00949 µM; first compound 0.00316 µM; active compounds read low
reported.endpoint: viability, T/C (%)
Numbers only; they are read as %.

// query viability, T/C value for entry Nc1ccn(C2OC(CO)C(O)C2(F)F)c(=O)n1 (stereo not drawn) + CCn1c(-c2cc(N3CCN(C)CC3)cnc2C(C)OC)c2c3cc(ccc31)-c1csc(n1)CC(NC(=O)C1CC1C)C(=O)N1CCCC(N1)C(=O)OCC(C)(C)C2 11.9

Check O=C(c1ccc(F)c(F)c1Nc1ccc(I)cc1F)N1CC(O)([C@@H]2CCCCN2)C1 + CCn1c(-c2cc(N3CCN(C)CC3)cnc2C(C)OC)c2c3cc(ccc31)-c1csc(n1)CC(NC(=O)C1CC1C)C(=O)N1CCCC(N1)C(=O)OCC(C)(C)C2 too. 12.8

Same question for C=CC(=O)Nc1cc(Nc2nccc(-c3cn(C)c4ccccc34)n2)c(OC)cc1N(C)CCN(C)C + CCn1c(-c2cc(N3CCN(C)CC3)cnc2C(C)OC)c2c3cc(ccc31)-c1csc(n1)CC(NC(=O)C1CC1C)C(=O)N1CCCC(N1)C(=O)OCC(C)(C)C2 please. 17.6

Request: C=CC(=O)N1CCN(c2nc(OCC3CCCN3C)nc3c(F)c(-c4nc(N)cc(C)c4C(F)(F)F)c(Cl)cc23)C(C)C1 (stereo not drawn) + CCn1c(-c2cc(N3CCN(C)CC3)cnc2C(C)OC)c2c3cc(ccc31)-c1csc(n1)CC(NC(=O)C1CC1C)C(=O)N1CCCC(N1)C(=O)OCC(C)(C)C2 4.68

// next record Nc1ccn(C2OC(CO)C(O)C2(F)F)c(=O)n1 (stereo not drawn) + CCn1c(-c2cccnc2C(C)OC)c2c3cc(ccc31)N1CCOC(CC(NC(=O)C(C(C)C)N(C)C(=O)C3(F)CCN(C(=O)C#CC(C)(C)N(C)C)CC3)C(=O)N3CCCC(N3)C(=O)OCC(C)(C)C2)C1 9.77

Entry to check: CCN1CCN(Cc2ccc(Nc3ncc(F)c(-c4cc(F)c5nc(C)n(C(C)C)c5c4)n3)nc2)CC1 + CCn1c(-c2cccnc2C(C)OC)c2c3cc(ccc31)N1CCOC(CC(NC(=O)C(C(C)C)N(C)C(=O)C3(F)CCN(C(=O)C#CC(C)(C)N(C)C)CC3)C(=O)N3CCCC(N3)C(=O)OCC(C)(C)C2)C1 11.7

Further, for O=C(c1ccc(F)c(F)c1Nc1ccc(I)cc1F)N1CC(O)([C@@H]2CCCCN2)C1 + CCn1c(-c2cccnc2C(C)OC)c2c3cc(ccc31)N1CCOC(CC(NC(=O)C(C(C)C)N(C)C(=O)C3(F)CCN(C(=O)C#CC(C)(C)N(C)C)CC3)C(=O)N3CCCC(N3)C(=O)OCC(C)(C)C2)C1 ? 11.9

What would you report for CC(C)n1nc(-c2ccc3oc(N)nc3c2)c2c(N)ncnc21 + CCn1c(-c2cc(N3CCN(C)CC3)cnc2C(C)OC)c2c3cc(ccc31)-c1csc(n1)CC(NC(=O)C1CC1C)C(=O)N1CCCC(N1)C(=O)OCC(C)(C)C2 ? 9.17

====

- Tested on: K86415-001-R-J1-PDC complex spheroids, viability
- experiment: Anticancer human tumor K86415-001-R-J1-PDC cell line growth inhibition [RAS]; active = viability on the fitted dose curve at most 10% of control; inactive = the rest;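 note: spheroids exposed to agents for seven days before readout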
- settings: second compound 0.03 µM; first compound 10 µM
// one of active, inactive, no free text

Which result was noted for this molecule in the test: CC1(O)CCCC1n1c(=O)c(C(F)F)cc2cnc(NC3CCN(S(C)(=O)=O)CC3)nc21 (centres undefined) + CCn1c(-c2cccnc2C(C)OC)c2c3cc(ccc31)N1CCOC(CC(NC(=O)C(C(C)C)N(C)C(=O)C3(F)CCN(C(=O)C#CC(C)(C)N(C)C)CC3)C(=O)N3CCCC(N3)C(=O)OCC(C)(C)C2)C1 inactive

Then Cc1nc(N2CCC3(CC2)COC(C)C3N)c(CO)nc1Sc1ccnc(N)c1Cl (centres undefined) + CCn1c(-c2cc(N3CCN(C)CC3)cnc2C(C)OC)c2c3cc(ccc31)-c1csc(n1)CC(NC(=O)C1CC1C)C(=O)N1CCCC(N1)C(=O)OCC(C)(C)C2 ? active

Repeat with Cc1nc(N2CCC3(CC2)COC(C)C3N)c(CO)nc1Sc1ccnc(N)c1Cl (centres undefined) + CCn1c(-c2cccnc2C(C)OC)c2c3cc(ccc31)N1CCOC(CC(NC(=O)C(C(C)C)N(C)C(=O)C3(F)CCN(C(=O)C#CC(C)(C)N(C)C)CC3)C(=O)N3CCCC(N3)C(=O)OCC(C)(C)C2)C1 active

Field entry: CCC(CC)c1cc(NC2CCC(N)C2)n2nccc2n1 (centres undefined) + CCn1c(-c2cc(N3CCN(C)CC3)cnc2C(C)OC)c2c3cc(ccc31)-c1csc(n1)CC(NC(=O)C1CC1C)C(=O)N1CCCC(N1)C(=O)OCC(C)(C)C2 active
